Test: Solvent solubility screen by solvent addition technique
Assay type: physicochemical
Settings: 40 °C, thermodynamic from solid; Water; amorphous input; read-out: Solubility (mg/mL) at 40° C.
Structures can show the parent of a compound that is named as a salt.

- compound: "Nc1ncccc1-c1nc2ccc(-c3ccccc3)nc2n1-c1ccc(C2(N)CCC2)cc1 [Compound A bis-mesylate salt]"
  solubility: "~769 mg/mL"

---

Assay: Stability testing of bis-mesylate forms for 1 week (XRPD, HPLC purity)
Format: physicochemical
Conditions: ambient temperature

- molecule: "Nc1ncccc1-c1nc2ccc(-c3ccccc3)nc2n1-c1ccc(C2(N)CCC2)cc1 [Form B]"
  HPLC purity after stability test: "about 99.7%"
- molecule: "Nc1ncccc1-c1nc2ccc(-c3ccccc3)nc2n1-c1ccc(C2(N)CCC2)cc1 [Form D]"
  HPLC purity after stability test: "about 99.9%"
- molecule: "Nc1ncccc1-c1nc2ccc(-c3ccccc3)nc2n1-c1ccc(C2(N)CCC2)cc1 [Form C]"
  HPLC purity after stability test: "about 99.9%"
- molecule: "Nc1ncccc1-c1nc2ccc(-c3ccccc3)nc2n1-c1ccc(C2(N)CCC2)cc1 [Form E]"
  HPLC purity after stability test: "about 99.7%"
- molecule: "Nc1ncccc1-c1nc2ccc(-c3ccccc3)nc2n1-c1ccc(C2(N)CCC2)cc1 [Form A]"
  HPLC purity after stability test: "about 99.7%"
